Source of measurements: patent US20120016155A1

# EC50 per record follows
Molecular target: mGlu7 (Homo sapiens, UniProt Q14831)
Sequence (Q14831 35-915): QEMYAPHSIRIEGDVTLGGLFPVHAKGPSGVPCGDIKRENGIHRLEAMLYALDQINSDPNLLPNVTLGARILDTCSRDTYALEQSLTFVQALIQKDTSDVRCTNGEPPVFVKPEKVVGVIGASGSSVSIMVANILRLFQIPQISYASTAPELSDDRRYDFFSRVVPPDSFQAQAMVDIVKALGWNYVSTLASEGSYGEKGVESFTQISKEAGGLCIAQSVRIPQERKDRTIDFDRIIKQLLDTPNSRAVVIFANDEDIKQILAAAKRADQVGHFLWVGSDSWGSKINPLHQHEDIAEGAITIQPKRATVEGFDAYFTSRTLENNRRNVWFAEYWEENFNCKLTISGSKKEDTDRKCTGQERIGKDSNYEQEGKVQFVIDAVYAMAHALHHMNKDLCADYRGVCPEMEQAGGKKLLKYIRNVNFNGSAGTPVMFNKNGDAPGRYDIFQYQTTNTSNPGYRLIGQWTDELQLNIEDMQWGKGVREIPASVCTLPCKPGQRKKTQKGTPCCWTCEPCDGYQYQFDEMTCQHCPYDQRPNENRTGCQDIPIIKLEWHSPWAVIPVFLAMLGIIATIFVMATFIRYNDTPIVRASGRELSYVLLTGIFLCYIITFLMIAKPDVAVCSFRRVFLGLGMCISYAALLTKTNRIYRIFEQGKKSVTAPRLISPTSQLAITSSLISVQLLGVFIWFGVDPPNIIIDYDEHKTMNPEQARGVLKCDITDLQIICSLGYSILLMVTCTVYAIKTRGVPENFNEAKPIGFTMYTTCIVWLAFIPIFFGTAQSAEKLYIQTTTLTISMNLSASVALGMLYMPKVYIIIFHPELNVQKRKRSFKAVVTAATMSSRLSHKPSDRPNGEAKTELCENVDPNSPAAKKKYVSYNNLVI
Assay: Activities on metabotropic glutamate receptor 7 (EC50; readout marked IP or by a symbol)
Format: cell-based
Conditions: values marked with an image symbol (second readout, not IP); mean ± spread (n); read-out: mG1u7 EC50 μM (n) (converted)
Counter-ions that a name gives are not always drawn.
reported_endpoint: EC50 (µM)

[[record]]
molecule = "N[C@@H](CCP(=O)(O)C(O)c1ccc(O)c([N+](=O)[O-])c1)C(=O)O (single isomer, unassigned) [LSP3-2074-I, hydrochloride]"
assay_target = "mGlu7 (Homo sapiens, UniProt Q14831)"
result = 62

[[record]]
molecule = "N[C@@H](CCP(=O)(O)C(O)c1ccc(O)c([N+](=O)[O-])c1)C(=O)O (stereo partly drawn) [LSP1-2109]"
assay_target = "mGlu7 (Homo sapiens, UniProt Q14831)"
result = 125

[[record]]
molecule = "Cl.N[C@@H](CCP(=O)(O)C(O)c1ccc(O)c([N+](=O)[O-])c1)C(=O)O (single isomer, unassigned) [LSP3-2074-II, hydrochloride]"
assay_target = "mGlu7 (Homo sapiens, UniProt Q14831)"
result = 295

